Catalogue of average number of clones of clonogenic cells, percentage relative to control readings, one per entry.
# Test system: colorectal line HT-29
# ASSAY: Clonogenic test (soft agar colony growth), HT-29
# Assay type: cell-based
# SETUP_CONDITIONS: 10^−5 M, 21 days, control = 100%, mean ± SEM
Write the value in % as a bare number.

Reference set, count: 5
* COc1ccc(-c2cc3c(OC)cc(OC)cc3[nH]c2=O)cc1 [CRL8246] | 70.9
* CCN(CC)C(=O)Cn1c(=O)c(-c2ccc(OC)cc2)cc2c(OC)cc(OC)cc21 [CRL8315] | 103.5
* COc1ccc(-c2cc3c(OC)cc(OC)cc3n(CCc3nnn[nH]3)c2=O)cc1 [CRL8256] | 97.1
* COc1ccc(-c2cc3c(OC)cc(OC)cc3n(CCN(C)C)c2=O)cc1 [CRL8316] | 50.6
* COc1ccc(-c2cc3c(OC)cc(OC)cc3n(CCC#N)c2=O)cc1 [CRL8247] | 72.7

[in] Reported average number of clones of clonogenic cells, percentage relative to control, molecule CCN(CC)C(=O)CCn1c(=O)c(-c2ccc(OC)cc2)cc2c(OC)cc(OC)cc21 [CRL8283] : ____
[out] 88.9
